This section presents compounds with their documented % KD and Mortality values.
Tested on: tropical house mosquito Culex quinquefasciatus (adults, 3 days old)
assay.name: Efficacy of formulations on surfaces (glazed/unglazed tiles, plywood), ten 3 day old mosquitoes, 3 min exposure
Type: in vivo
setup.conditions: 4 h; in acetone on glazed tiles; Table 84
readout.kind: % KD and Mortality (%)

CC1(C)CC(O)CC(C)(C)N1	0
COC(=O)CCCCCCCCC(=O)OC [1% Dimethyl sebacate]	0
CC1(C)CC(OC(=O)CCCCCCCCC(=O)OC2CC(C)(C)NC(C)(C)C2)CC(C)(C)N1	3
O=C(CCCCCCCCC(=O)ON1C(=O)CCC1=O)ON1C(=O)CCC1=O	0
CC1(C)CC(O)CC(C)(C)N1[O]	0
CN1C(C)(C)CC(O)CC1(C)C	0
CNC(=O)Oc1cccc2c1OC(C)(C)O2	90
CCCCCCCCON1C(C)(C)CC(OC(=O)CCCCCCCCC(=O)OC2CC(C)(C)N(OCCCCCCCC)C(C)(C)C2)CC1(C)C	3
O=C(O)CCCCCCCCC(=O)O	3
O=C(CCCCCCCCC(=O)OCc1ccccc1)OCc1ccccc1	3

Cited source for all entries: patent US9028856B2
